Below: a set of entries, each annotated with reported melting point.

Here are 10 compounds together with their reported answers.
COc1cc2c(cc1Nc1ncc(Cl)c(Nc3ccccc3S(=O)(=O)C(C)C)n1)CCN(CC(=O)N(C)C)CC2 | 83 to 94 °C
O=C(O)C(Oc1ccc(OCc2ccccc2)cc1)c1ccc(OCCCOc2ccc(Cl)cc2)cc1 (stereo unspecified) | 105 to 109 °C
CC(C)(C)OC(=O)N1CCC(NC(=O)c2ccc(-n3ncc4ccccc43)cc2)CC1 | 165 to 166 °C
O=C1NC(=O)C(c2cc(Cl)ccc2S(=O)(=O)Cl)N1 (stereo unspecified) | 211 to 212 °C
CCCCn1c(C)c(C)cc(NC(=O)Nc2ccccc2Br)c1=O | 154 to 155 °C
O=c1oc(-c2ccc(C(F)(F)F)cc2)nn1Cc1cc(Cl)ccc1O | 144 to 145 °C
CNC(=O)c1cccc(NC(=O)C2(c3ccccc3)CCCC2)c1 | 147 °C
CN(C)CCCNc1ccc([N+](=O)[O-])cc1 | 60 to 61.5 °C
COc1cc2ccccc2cc1O | 108 to 109 °C
COc1c(-c2nnc(C)s2)cc2oc(=O)c(C)c(C)c2c1C | 201 to 203 °C

INPUT: If you can, please state the reported melting point value of Nc1cccc(Oc2cnc3cc(Cl)ccc3n2)c1 .
OUTPUT: 119 to 120 °C

INPUT: Request the reported melting point associated with CNC(=O)C(=NOC)c1cccc(Cl)c1COc1cc(C(F)(F)F)nc(OC(C)C)n1
OUTPUT: 116 to 118 °C

INPUT: Need melting point of COc1nc(N)nc(C(F)(F)F)n1 , thanks.
OUTPUT: 161 to 164 °C

INPUT: May I ask what melting point has been recorded for CC1(C)OC(=O)C(Oc2ccc3ccccc3n2)=C1c1ccc(S(C)(=O)=O)cc1 ?
OUTPUT: 141 to 142 °C

###

quantity-measured: melting point

Below, 5 compounds whose answers are already recorded.
CCC(C)c1ccccc1N1C(=O)CS/C1=N\C(=O)Nc1ccc(-c2ncn(-c3ccc(OC(F)(F)F)cc3)n2)cc1 (stereo unspecified) | 169 to 177 °C
Cc1c(Br)cccc1NCc1cc(C(C)(C)C)sc1C(=O)O | 150 to 152 °C
Cc1cc(Oc2cccc(C(F)(F)F)c2)nn1C(=O)Nc1ccccc1 | 53 to 54 °C
COc1ccc(OC(C)=O)c(C(=O)O)c1 | 155 to 157 °C
O=C1NC(=O)C(=Cc2cc(O)c(O)c([N+](=O)[O-])c2)S1 | 295 to 298 °C

INPUT: melting point lookup needed for O=C1OC(=O)c2c(-c3ccccc3)c3ccccc3c3cccc1c23 , thanks.
OUTPUT: 158 to 161 °C

###

Entries and their melting point values follow.

For orientation, consider the following solved cases.
O=c1[nH]c(=O)n(C2CC(F)C(CO)O2)cc1CO (stereo not drawn) | 184 °C
CCc1nc2c(C)cc(C)nc2n1Cc1ccc(-c2ccccc2S(=O)(=O)Nc2onc(C)c2C)c(CN2CCC(C)(C)C2=O)c1 | 95 to 104 °C

INPUT: Entry under review: Cc1nc(-c2ccc(C(=O)O)cc2)sc1C(=O)O . Reported melting point?
OUTPUT: > 300 °C

###

Quick reference for melting point among some compounds

Use these answered entries as a reference point.
CC(C)(C)OC(=O)N1CCC(Nc2cccc(NC(=O)c3ccc(F)cc3Cl)n2)CC1 | 82 °C
C=C(C)CC(O)C(Br)(Br)Br (stereo not given) | 64 to 65 °C
CCOP(=O)(Cc1ccc(NC(=O)[C@H]2Cc3cc4c(cc3C(=O)[C@H](C)S2)OCO4)cc1)OCC | 181 to 182 °C
COc1ccc(S(=O)(=O)n2ccc3ccnc(N(C)C)c32)cc1 | 155 to 158 °C

Now consider a different compound.
INPUT: Consider the compound N#Cc1cn(C[C@@H]2CN(c3ccc(N4CCC5(CC4)OCCO5)c(F)c3)C(=O)O2)nn1 and give its measured melting point.
OUTPUT: 158 to 160 °C
